target_under_test: DRB1*0401 (Homo sapiens, UniProt P01903+P01911, A100K/A169T/F76Y/I96L/K127E/L162R/M171V/N62H/P40V/Q125Y/R42H/S133A/S149N/S66Y/V115G/V209L/W38E)
Construct: made in house; host or cells: EBV-transformed homozygous human B cell lines, transfected fibroblasts or single-allele 721.221 transfectants
assay_notes: biochemical
Format: binding
condition_summary: read-out: IC50 nM to purified HLA DRB1*0401
Listed molecules paired with reported IC50

{"molecule": "CC(C)C[C@H](NC(=O)CNC(=O)[C@@H](NC(=O)[C@H](C)NC(=O)[C@H](CC(C)C)NC(=O)[C@@H](NC(=O)[C@H](CC(C)C)NC(=O)[C@H](CCCNC(=N)N)NC(=O)[C@H](CC(N)=O)NC(=O)[C@H](CO)NC(=O)[C@H](CCCCN)NC(=O)[C@@H](NC(=O)[C@H](Cc1ccc(O)cc1)NC(=O)[C@H](CCCCN)NC(=O)[C@@H]1CCCN1C(=O)[C@@H](N)CS)C(C)C)C(C)C)[C@@H](C)O)C(=O)O [Flu.HA.318]", "IC50, nM": 868}
{"molecule": "CC[C@H](C)[C@H](NC(=O)[C@H](CO)NC(=O)[C@@H](NC(=O)[C@@H](NC(=O)[C@@H](NC(=O)[C@@H](N)CCCNC(=N)N)C(C)C)C(C)C)C(C)C)C(=O)N[C@@H](CC(=O)O)C(=O)N[C@@H](CCCNC(=N)N)C(=O)N[C@@H](Cc1ccccc1)C(=O)N[C@@H](CC(C)C)C(=O)N[C@@H](CCCNC(=N)N)C(=O)N[C@H](C(=O)N[C@@H](CCCNC(=N)N)C(=O)N[C@@H](CC(=O)O)C(=O)N[C@@H](CCC(N)=O)C(=O)O)C(C)C [Flu.PB2.496]", "IC50, nM": 111}
{"molecule": "CC[C@H](C)[C@H](NC(=O)[C@H](CCCNC(=N)N)NC(=O)[C@@H](NC(=O)[C@H](CO)NC(=O)[C@H](CC(N)=O)NC(=O)[C@H](CC(=O)O)NC(=O)[C@H](CCCCN)NC(=O)[C@H](CO)NC(=O)[C@H](Cc1ccc(O)cc1)NC(=O)[C@@H](NC(=O)[C@H](C)NC(=O)[C@@H](N)Cc1c[nH]c2ccccc12)C(C)C)[C@@H](C)CC)C(=O)NCC(=O)N[C@@H](CO)C(=O)N[C@@H](CCCCN)C(=O)O [Flu.NA.77]", "IC50, nM": 1600}

----------
Recorded IC50, one value per entry.
target_under_test: DRB1*0101 (Homo sapiens, UniProt P01903+P01911, A100R/D57E/F55L/F60I/F76Y/I96L/L162R/M171V/P40L/Q125E/R42F/V115G/Y59C)
Construct: made in house; host or cells: EBV-transformed homozygous human B cell lines, transfected fibroblasts or single-allele 721.221 transfectants
assay_notes: biochemical
Format: binding
condition_summary: IC50 nM to purified HLA DRB1*0101

{"smiles_code": "CC(C)[C@H](NC(=O)[C@H](CCC(=O)O)NC(=O)[C@H](C)NC(=O)[C@@H](NC(=O)[C@H](Cc1ccccc1)NC(=O)[C@H](Cc1ccc(O)cc1)NC(=O)[C@H](CC(N)=O)NC(=O)[C@@H](N)CCCNC(=N)N)[C@@H](C)O)C(=O)N[C@@H](CO)C(=O)N[C@@H](Cc1c[nH]cn1)C(=O)N[C@@H](CS)C(=O)N[C@@H](CCCNC(=N)N)C(=O)N[C@@H](C)C(=O)N[C@H](C(=O)N[C@@H](CCC(=O)O)C(=O)O)[C@@H](C)O", "value_units": "nM", "IC50": 627}
{"smiles_code": "CSCC[C@H](NC(=O)[C@@H](NC(=O)[C@H](CCCNC(=N)N)NC(=O)[C@@H](N)CC(=O)O)C(C)C)C(=O)N[C@H](C(=O)N[C@@H](CO)C(=O)N1CCC[C@H]1C(=O)N[C@@H](CC(C)C)C(=O)N[C@@H](C)C(=O)N[C@H](C(=O)N[C@H](C(=O)N[C@@H](Cc1c[nH]c2ccccc12)C(=O)N[C@@H](Cc1c[nH]c2ccccc12)C(=O)N[C@@H](CC(N)=O)C(=O)N[C@@H](CCCNC(=N)N)C(=O)O)[C@@H](C)O)C(C)C)C(C)C", "value_units": "nM", "IC50": 93}
{"smiles_code": "CC[C@H](C)[C@H](NC(=O)[C@H](CC(C)C)NC(=O)[C@H](Cc1c[nH]c2ccccc12)NC(=O)[C@@H](NC(=O)[C@@H](NC(=O)[C@H](CC(N)=O)NC(=O)[C@H](CCCNC(=N)N)NC(=O)[C@H](Cc1ccccc1)NC(=O)[C@H](Cc1ccccc1)NC(=O)[C@H](CO)NC(=O)[C@H](CO)NC(=O)[C@@H](N)CCCCN)C(C)C)C(C)C)C(=O)N[C@@H](CCCCN)C(=O)N[C@@H](CCCCN)C(=O)N[C@@H](CC(N)=O)C(=O)O", "value_units": "nM", "IC50": 46}
{"smiles_code": "CC[C@H](C)[C@H](NC(=O)[C@H](CCC(=O)O)NC(=O)[C@H](CCC(N)=O)NC(=O)[C@H](CCC(=O)O)NC(=O)[C@@H](NC(=O)[C@H](CCC(=O)O)NC(=O)[C@H](CC(C)C)NC(=O)[C@H](CC(C)C)NC(=O)[C@H](CC(C)C)NC(=O)[C@@H](N)CCC(N)=O)C(C)C)C(=O)N[C@@H](CCCNC(=N)N)C(=O)N[C@H](C(=O)N[C@@H](Cc1ccccc1)C(=O)N[C@@H](CO)C(=O)N[C@@H](Cc1ccccc1)C(=O)O)[C@@H](C)O", "value_units": "nM", "IC50": 11900}
{"smiles_code": "CC(C)C[C@H](NC(=O)[C@H](CCCCN)NC(=O)[C@H](CCCNC(=N)N)NC(=O)[C@H](CO)NC(=O)[C@H](CCC(=O)O)NC(=O)[C@H](C)NC(=O)[C@H](CO)NC(=O)[C@H](Cc1ccccc1)NC(=O)CNC(=O)[C@H](CCC(=O)O)NC(=O)[C@@H](N)CC(C)C)C(=O)N[C@@H](CC(C)C)C(=O)N[C@@H](CC(C)C)C(=O)N[C@H](C(=O)N[C@H](C(=O)O)C(C)C)C(C)C", "value_units": "nM", "IC50": 12}

----------
target_under_test: DRB1*0101 (Homo sapiens, UniProt P01903+P01911, A100R/D57E/F55L/F60I/F76Y/I96L/L162R/M171V/P40L/Q125E/R42F/V115G/Y59C)
Construct: made in house; host or cells: EBV-transformed homozygous human B cell lines, transfected fibroblasts or single-allele 721.221 transfectants
assay_notes: biochemical
Type: binding
condition_summary: IC50 nM to purified HLA DRB1*0101

{"compound": "CC[C@H](C)[C@H](NC(=O)[C@@H](N)Cc1ccc(O)cc1)C(=O)N[C@@H](CCC(N)=O)C(=O)N[C@@H](CCSC)C(=O)N[C@@H](CS)C(=O)N[C@H](C(=O)N[C@@H](CCC(=O)O)C(=O)N[C@@H](CC(C)C)C(=O)N[C@@H](CCCCN)C(=O)N[C@@H](CC(C)C)C(=O)N[C@@H](CO)C(=O)N[C@@H](CC(=O)O)C(=O)N[C@@H](Cc1ccc(O)cc1)C(=O)N[C@@H](CCC(=O)O)C(=O)NCC(=O)O)[C@@H](C)O [Flu.NP.43]", "IC50 [nM]": 320}

----------
target_under_test: DRB4*0101 (Homo sapiens, UniProt P01903+P13762, G164S)
Construct: made in house; host or cells: EBV-transformed homozygous human B cell lines, transfected fibroblasts or single-allele 721.221 transfectants
assay_notes: biochemical
Assay type: binding
condition_summary: IC50 nM to purified HLA DRB4*0101
metric: IC50

{"smiles_code": "CC[C@H](C)[C@H](NC(=O)[C@H](CC(C)C)NC(=O)[C@H](CCCNC(=N)N)NC(=O)CNC(=O)[C@@H](N)CCC(=O)O)C(=O)N[C@@H](CCC(N)=O)C(=O)N[C@@H](CC(N)=O)C(=O)N[C@@H](CO)C(=O)N[C@H](C(=O)N[C@H](C(=O)N[C@H](C(=O)N[C@@H](CCC(=O)O)C(=O)N[C@@H](CCCNC(=N)N)C(=O)N[C@@H](CCSC)C(=O)N[C@H](C(=O)O)C(C)C)[C@@H](C)CC)[C@@H](C)O)[C@@H](C)CC", "value_observed": "15 nM"}
{"smiles_code": "CC[C@H](C)[C@H](NC(=O)[C@H](CC(C)C)NC(=O)[C@H](Cc1c[nH]c2ccccc12)NC(=O)[C@@H](NC(=O)[C@@H](N)C(C)C)C(C)C)C(=O)N[C@@H](CCCCN)C(=O)N[C@@H](CCCCN)C(=O)N[C@@H](CC(N)=O)C(=O)N[C@@H](CO)C(=O)N[C@H](C(=O)N[C@@H](Cc1ccc(O)cc1)C(=O)N1CCC[C@H]1C(=O)N[C@H](C(=O)N[C@H](C(=O)N[C@@H](CCCCN)C(=O)N[C@@H](CCCNC(=N)N)C(=O)O)[C@@H](C)CC)[C@@H](C)O)[C@@H](C)O", "value_observed": "1660 nM"}
